# MIC values compiled below
System: C. krusei
Experiment: Antifungal Activity Assay (broth microtiter MIC), C. krusei
Type: cell-based, Candida krusei
Settings: Pichia kudriavzevii, ATCC6258, 48 h, Table 3b (additional results); ATCC 6258; 3 replicates; MIC recorded at 48 h; read-out: MIC, C. krusei ATCC 6258

Answered cases to consult:
molecule: COc1ccc(F)cc1[C@H](Cn1c(=O)n(C(C)(C)C(=O)N2CC=CC2)c(=O)c2c(C)c(-n3nccn3)sc21)OC1CCOCC1 [Compound I-62]
system_name: C. krusei
MIC: 0.25 to 1 mg/L

molecule: COc1ccc(F)cc1[C@H](Cn1c(=O)n(C(C)(C)C(=O)N2CCCC2)c(=O)c2c(C)c(-n3nccn3)sc21)OC1CCC(=O)CC1 [Compound I-33]
system_name: C. krusei
MIC: 0.25 to 1 mg/L

molecule: Cc1c(-n2nccn2)sc2c1c(=O)n(C(C)(C)C(=O)NC(C)C)c(=O)n2CCc1cc(F)ccc1OC1CCOCC1 [Compound I-279]
system_name: C. krusei
MIC: 2.01 to 4 mg/L

Data request: Find the recorded MIC belonging to CCNC(=O)C(C)(C)n1c(=O)c2c(C)c(-n3nccn3)sc2n(C[C@H](OC2CCOCC2)c2ccccc2OC)c1=O [Compound I-15] and report it.
Data returned: 0.25 to 1 mg/L

Data request: Item CCc1ccc(F)cc1[C@H](Cn1c(=O)n(C(C)(C)C(=O)NC(C)C)c(=O)c2c(C)c(-n3nccn3)sc21)OCC(C)(C)O (stereo in doubt) [Compound I-240] has what recorded MIC?
Data returned: > 4.01 mg/L

Data request: Give the measured MIC of COc1ccc(F)cc1[C@H](Cn1c(=O)n(C(C)(C)C(=O)NC(C)C)c(=O)c2c(C)c(-n3nccn3)sc21)OCCC(O)CO (stereo partly drawn) [Compound I-220] .
Data returned: 0.25 to 1 mg/L

Data request: // lookup MIC for COc1ccc(F)cc1[C@@](C)(Cn1c(=O)n(C(C)(C)C(=O)NC(C)C)c(=O)c2c(C)c(-n3nccn3)sc21)OCCC#N [Compound I-230]
Data returned: 0.25 to 1 mg/L

Data request: Need MIC of COc1ccc(F)cc1[C@H](Cn1c(=O)n(C(C)(C)C(=O)N2CC=CC2)c(=O)c2c(C)c(-n3nccn3)sc21)OC[C@H](C)O [Compound I-117] , thanks.
Data returned: > 4.01 mg/L

Data request: Bench note: what MIC did C=CCN(C)C(=O)C(C)(C)n1c(=O)c2c(C)c(-n3nccn3)sc2n(C[C@H](OC(C)C)c2cc(F)ccc2OC)c1=O [Compound I-115] show?
Data returned: 1.01 to 2 mg/L

Data request: May I ask what MIC has been recorded for COc1ccc(F)cc1[C@H](Cn1c(=O)n(C(C)C(=O)NC(C)C)c(=O)c2c(C)c(-n3nccn3)sc21)OCCO (stereo partly drawn) [Compound I-131] ?
Data returned: 1.01 to 2 mg/L

Data request: What value of measured MIC is listed for COc1ccc(F)cc1[C@H](Cn1c(=O)n(C(C)(C)C(=O)O)c(=O)c2c(C)c(-n3nccn3)sc21)OCCN1CC(C#N)C1 [Compound I-145] ?
Data returned: > 4.01 mg/L

Data request: Look up MIC: COCCOc1ccc(F)cc1[C@H](Cn1c(=O)n(C(C)(C)C(=O)NC(C)C)c(=O)c2c(C)c(-n3nccn3)sc21)OC(C)C [Compound I-54]
Data returned: 0.25 to 1 mg/L
